Molecular target: JAK1 (Homo sapiens, UniProt P23458)
Construct: endogenous in cells; host or cells: Jurkat cells
Sequence (P23458 whole entry): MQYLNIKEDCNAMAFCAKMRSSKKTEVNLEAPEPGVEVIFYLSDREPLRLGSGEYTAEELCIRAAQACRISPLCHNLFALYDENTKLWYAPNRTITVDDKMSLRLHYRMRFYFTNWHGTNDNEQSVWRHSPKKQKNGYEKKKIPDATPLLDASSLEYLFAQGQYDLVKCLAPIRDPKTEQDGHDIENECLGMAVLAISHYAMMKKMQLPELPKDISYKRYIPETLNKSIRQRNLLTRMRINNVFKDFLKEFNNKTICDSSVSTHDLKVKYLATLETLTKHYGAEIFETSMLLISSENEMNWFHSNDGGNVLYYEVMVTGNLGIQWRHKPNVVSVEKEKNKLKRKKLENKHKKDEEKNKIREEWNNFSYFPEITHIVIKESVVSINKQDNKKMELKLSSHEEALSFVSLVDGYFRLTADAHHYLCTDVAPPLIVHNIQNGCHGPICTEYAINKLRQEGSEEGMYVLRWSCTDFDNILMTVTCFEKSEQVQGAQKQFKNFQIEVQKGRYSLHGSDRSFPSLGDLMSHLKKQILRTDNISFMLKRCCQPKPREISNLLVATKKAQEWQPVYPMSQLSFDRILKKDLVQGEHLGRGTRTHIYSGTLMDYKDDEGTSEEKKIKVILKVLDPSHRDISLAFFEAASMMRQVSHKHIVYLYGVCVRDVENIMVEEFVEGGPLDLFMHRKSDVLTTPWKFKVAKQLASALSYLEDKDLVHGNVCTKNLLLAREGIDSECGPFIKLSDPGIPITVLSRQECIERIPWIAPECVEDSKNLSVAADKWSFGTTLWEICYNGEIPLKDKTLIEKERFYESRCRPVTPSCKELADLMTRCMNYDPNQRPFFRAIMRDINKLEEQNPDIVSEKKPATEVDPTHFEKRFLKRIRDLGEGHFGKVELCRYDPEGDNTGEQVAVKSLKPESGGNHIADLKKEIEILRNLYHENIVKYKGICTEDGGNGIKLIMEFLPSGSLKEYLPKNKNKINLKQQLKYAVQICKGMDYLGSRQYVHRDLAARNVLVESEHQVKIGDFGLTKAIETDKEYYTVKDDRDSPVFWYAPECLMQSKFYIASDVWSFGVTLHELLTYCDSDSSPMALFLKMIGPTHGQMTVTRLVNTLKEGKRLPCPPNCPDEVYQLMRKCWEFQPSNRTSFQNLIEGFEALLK
Assay: Degradation-inducing effect on JAK in Jurkat cells (chemiluminescent Western blotting), JAK1
Type: cell-based
Details: 1 μmol/L, 6 hours, corrected by GAPDH, DMSO as 100%
The following molecules are listed with their measured JAK protein ratio of Jurkat cells after treatment of each test compound: JAK1 values.
READOUT LABEL: JAK protein ratio of Jurkat cells after treatment of each test compound: JAK1 (%)

CNC(=O)c1cccc(Nc2cc(Nc3ccc(C(=O)NCCCCCCCCCC(=O)N[C@H](C(=O)N4C[C@H](O)C[C@H]4C(=O)NCc4ccc(-c5scnc5C)cc4)C(C)(C)C)cn3)ncc2C(N)=O)c1OC [Example 9] : 57.6
CNC(=O)c1cnc(Nc2ccc(C(=O)NCCCCCCCCCC(=O)N[C@H](C(=O)N3C[C@H](O)C[C@H]3C(=O)NCc3ccc(-c4scnc4C)cc3)C(C)(C)C)cn2)cc1Nc1cccc(C(=O)NCCO)c1OC [Example 11] : 114.4
CNC(=O)c1cnc(Nc2ccc(F)cn2)cc1Nc1cccc(C(=O)NCCCCCCCCCC(=O)N[C@H](C(=O)N2C[C@H](O)C[C@H]2C(=O)NCc2ccc(-c3scnc3C)cc2)C(C)(C)C)c1OC [Comparative Example 1, reference compound] : 92.4
CNC(=O)c1cnc(Nc2ccc(C(=O)NCCCCCCCCCCCC(=O)N[C@H](C(=O)N3C[C@H](O)C[C@H]3C(=O)NCc3ccc(-c4scnc4C)cc3)C(C)(C)C)cn2)cc1Nc1cccc(C(=O)NC)c1OC [Example 7] : 112.1

----------
The following compounds are listed with their measured JAK3 protein level relative to DMSO at 1 µM values.
Target: JAK3 (Homo sapiens, UniProt P52333)
Construct: endogenous in cells; host or cells: Jurkat cells
Sequence (P52333 whole entry): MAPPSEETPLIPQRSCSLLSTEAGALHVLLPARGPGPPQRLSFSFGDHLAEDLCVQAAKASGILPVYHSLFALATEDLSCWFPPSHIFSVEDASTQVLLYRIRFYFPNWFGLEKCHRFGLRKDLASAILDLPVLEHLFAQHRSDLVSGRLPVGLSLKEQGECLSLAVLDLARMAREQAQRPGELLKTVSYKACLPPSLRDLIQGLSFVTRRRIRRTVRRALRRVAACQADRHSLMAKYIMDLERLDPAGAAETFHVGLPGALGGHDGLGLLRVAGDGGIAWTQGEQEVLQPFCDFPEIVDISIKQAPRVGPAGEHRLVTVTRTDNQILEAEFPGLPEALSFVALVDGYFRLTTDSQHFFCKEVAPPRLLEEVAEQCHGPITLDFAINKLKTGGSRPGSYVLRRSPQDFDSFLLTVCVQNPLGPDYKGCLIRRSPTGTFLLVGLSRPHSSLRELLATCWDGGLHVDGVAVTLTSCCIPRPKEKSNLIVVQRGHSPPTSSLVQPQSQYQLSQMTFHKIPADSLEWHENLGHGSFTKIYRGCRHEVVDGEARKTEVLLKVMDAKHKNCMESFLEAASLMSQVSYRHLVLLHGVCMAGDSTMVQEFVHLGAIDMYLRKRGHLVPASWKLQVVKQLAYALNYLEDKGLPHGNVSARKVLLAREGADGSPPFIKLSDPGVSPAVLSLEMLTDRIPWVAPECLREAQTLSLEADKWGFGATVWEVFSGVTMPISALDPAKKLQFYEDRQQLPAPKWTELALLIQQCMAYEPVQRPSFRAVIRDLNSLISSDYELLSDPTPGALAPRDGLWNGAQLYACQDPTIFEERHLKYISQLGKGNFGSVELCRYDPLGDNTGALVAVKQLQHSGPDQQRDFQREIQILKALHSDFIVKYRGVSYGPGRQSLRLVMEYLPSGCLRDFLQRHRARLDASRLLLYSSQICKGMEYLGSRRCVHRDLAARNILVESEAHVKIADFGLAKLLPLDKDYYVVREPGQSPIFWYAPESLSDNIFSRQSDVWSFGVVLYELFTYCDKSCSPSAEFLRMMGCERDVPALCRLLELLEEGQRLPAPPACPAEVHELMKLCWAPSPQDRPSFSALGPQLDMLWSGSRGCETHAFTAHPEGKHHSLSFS
Assay: Degradation-inducing effect on JAK in Jurkat cells (chemiluminescent Western blotting), JAK3
Type: cell-based
Conditions: 1 μmol/L, 6 hours, corrected by GAPDH, DMSO as 100%, read-out: JAK protein ratio of Jurkat cells after treatment of each test compound: JAK3
READOUT LABEL: JAK3 protein level relative to DMSO at 1 µM (%)

CNC(=O)c1cnc(Nc2ccc(C(=O)NCCCCCCCCCC(=O)N[C@H](C(=O)N3C[C@H](O)C[C@H]3C(=O)NCc3ccc(-c4scnc4C)cc3)C(C)(C)C)cn2)cc1Nc1cccc(C(=O)NCCO)c1OC [Example 11] : 103
CNC(=O)c1cnc(Nc2ccc(C(=O)NCCCCCCCCC(=O)N[C@H](C(=O)N3C[C@H](O)C[C@H]3C(=O)NCc3ccc(-c4scnc4C)cc3)C(C)(C)C)cn2)cc1Nc1cccc(C(=O)NC)c1OC [Example 4] : 129
CNC(=O)c1cnc(Nc2ccc(C(=O)NCCCC(=O)N[C@H](C(=O)N3C[C@H](O)C[C@H]3C(=O)NCc3ccc(-c4scnc4C)cc3)C(C)(C)C)cn2)cc1Nc1cccc(C(=O)NC)c1OC [Example 1] : 114
CNC(=O)c1cnc(Nc2ccc(C(=O)NCCCCCC(=O)N[C@H](C(=O)N3C[C@H](O)C[C@H]3C(=O)NCc3ccc(-c4scnc4C)cc3)C(C)(C)C)cn2)cc1Nc1cccc(C(=O)NC)c1OC [Example 2] : 118
CNC(=O)c1cccc(Nc2cc(Nc3ccc(C(=O)NCCCCCCCCCC(=O)N[C@H](C(=O)N4C[C@H](O)C[C@H]4C(=O)NCc4ccc(-c5scnc5C)cc4)C(C)(C)C)cn3)ncc2C(N)=O)c1OC [Example 9] : 99.3
CNC(=O)c1cnc(Nc2ccc(C(=O)NCCCCCCCCCC(=O)N[C@H](C(=O)N3C[C@H](O)C[C@H]3C(=O)NCc3ccc(-c4scnc4C)cc3)C(C)(C)C)cn2)cc1Nc1cccc(-c2ncn(C)n2)c1OC [Example 10] : 111
CNC(=O)c1cnc(Nc2ccc(C(=O)NCCCCCCCCCCC(=O)N[C@H](C(=O)N3C[C@H](O)C[C@H]3C(=O)NCc3ccc(-c4scnc4C)cc3)C(C)(C)C)cn2)cc1Nc1cccc(C(=O)NC)c1OC [Example 6] : 122
CNC(=O)c1cnc(Nc2ccc(F)cn2)cc1Nc1cccc(C(=O)OCCCCCCCCCC(=O)N[C@H](C(=O)N2C[C@H](O)C[C@H]2C(=O)NCc2ccc(-c3scnc3C)cc2)C(C)(C)C)c1OC [Comparative Example 2, reference compound] : 89.8
CNC(=O)c1cnc(Nc2ccc(C(=O)NCCCCCCCC(=O)N[C@H](C(=O)N3C[C@H](O)C[C@H]3C(=O)NCc3ccc(-c4scnc4C)cc3)C(C)(C)C)cn2)cc1Nc1cccc(C(=O)NC)c1OC [Example 3] : 97.5

Where these numbers come from: patent US20240425456A1
